- Tested on: Rattus norvegicus
- TEST NAME: Antihypertensive activity against DOCA-salt induced hypertension in albino rat assessed as reduction in systolic blood pressure at 10 mg/kg, po after 300 mins by tail-cuff method
- Assay type: functional
- MEASUREMENT CONTEXT: Artery, 5 h
OBSERVABLE: inhibition in vivo at 10 mg/kg

Previously resolved entries follow.
CC1=C(C(=O)Nc2ccc(F)cc2)C(c2ccc([N+](=O)[O-])cc2)N=C(SCc2ccccc2Cl)N1 (stereo not given); 18.5%
COc1ccc(C2N=C(SCc3ccc(F)cc3)NC(C)=C2C(=O)Nc2ccc(F)cc2)cc1OC (stereo not given); 37.9%
CC1=C(C(=O)Nc2ccc(Br)cc2)C(c2ccc(Cl)cc2Cl)N=C(SCc2ccc(F)cc2)N1 (stereo not given); 38.5%
CC1=C(C(=O)Nc2ccc([N+](=O)[O-])cc2)C(c2ccc(Br)cc2)N=C(SCc2ccccc2Cl)N1 (stereo not given); 16.9%

query: // map COc1ccc(C2N=C(SCc3ccc(Cl)cc3)NC(C)=C2C(=O)Nc2ccc(Br)cc2)cc1 (stereo not given) to recorded inhibition in vivo at 10 mg/kg (system: Rattus norvegicus)
result: 37.9%

----------
- System: Rattus norvegicus
- TEST NAME: Antihypertensive activity against DOCA-salt induced hypertension in albino rat assessed as reduction in systolic blood pressure at 10 mg/kg, po after 15 mins by tail-cuff method
- Format: functional
- MEASUREMENT CONTEXT: Artery, 0.25 h
OBSERVABLE: inhibition in vivo at 10 mg/kg

CC1=C(C(=O)Nc2ccc(Br)cc2)C(c2ccc(Cl)cc2Cl)N=C(SCc2ccc(Cl)cc2)N1 (configuration not stated); 4.1%
CC1=C(C(=O)Nc2ccc([N+](=O)[O-])cc2)C(c2ccc(Br)cc2)N=C(SCc2ccccc2Cl)N1 (configuration not stated); 1.5%
COc1ccc(C2N=C(SCc3ccccc3Cl)NC(C)=C2C(=O)Nc2ccc(F)cc2)cc1OC (configuration not stated); 2.6%
CC1=C(C(=O)Nc2ccc(Br)cc2)C(c2ccc(Cl)cc2Cl)N=C(SCc2cccc(Cl)c2)N1 (configuration not stated); 1.5%
CC1=C(C(=O)Nc2ccc(F)cc2)C(c2ccc([N+](=O)[O-])cc2)N=C(SCc2ccc(Cl)cc2)N1 (configuration not stated); 3.6%

query: Record request: inhibition in vivo at 10 mg/kg value, item CC1=C(C(=O)Nc2ccc(Br)cc2)C(c2ccc(Cl)cc2Cl)N=C(SCc2ccccc2)N1 (configuration not stated)
result: 1.5%

query: Please do the same for CC1=C(C(=O)Nc2ccc([N+](=O)[O-])cc2)C(c2cccc([N+](=O)[O-])c2)N=C(SCc2ccc(Cl)cc2)N1 (configuration not stated) as well.
result: 2.1%

query: Please do the same for CC1=C(C(=O)Nc2ccc(F)cc2)C(c2ccc([N+](=O)[O-])cc2)N=C(SCc2cccc(Cl)c2)N1 (configuration not stated) as well.
result: 2.1%

query: Please do the same for CC1=C(C(=O)Nc2ccc(F)cc2)C(c2ccc([N+](=O)[O-])cc2)N=C(SCc2ccc(F)cc2)N1 (configuration not stated) as well.
result: 3.1%

query: Please do the same for COC(=O)C1=C(C)NC(C)=C(C(=O)OC)C1c1ccccc1[N+](=O)[O-] [NIFEDIPINE] as well.
result: 1.5%

query: Please do the same for CC1=C(C(=O)Nc2ccc([N+](=O)[O-])cc2)C(c2cccc([N+](=O)[O-])c2)N=C(SCc2ccccc2)N1 (configuration not stated) as well.
result: 2.6%

query: Please do the same for COc1ccc(C2N=C(SCc3ccccc3)NC(C)=C2C(=O)Nc2ccc(F)cc2)cc1OC (configuration not stated) as well.
result: 1.5%

query: Please do the same for COc1ccc(C2N=C(SCc3ccc(F)cc3)NC(C)=C2C(=O)Nc2ccc(Br)cc2)cc1 (configuration not stated) as well.
result: 3.6%

query: Please do the same for CC1=C(C(=O)Nc2ccc(F)cc2)C(c2ccc([N+](=O)[O-])cc2)N=C(SCc2ccccc2Cl)N1 (configuration not stated) as well.
result: 1.5%

----------
- System: Rattus norvegicus
- TEST NAME: Antihypertensive activity against DOCA-salt induced hypertension in albino rat assessed as reduction in systolic blood pressure at 10 mg/kg, po after 15 mins by tail-cuff method
- Assay type: functional
- MEASUREMENT CONTEXT: Artery, 0.25 h
This listing pairs molecules with measured inhibition in vivo at 10 mg/kg.
Give the quantity in %, number only.

CC1=C(C(=O)Nc2ccc([N+](=O)[O-])cc2)C(c2ccc(Br)cc2)N=C(SCc2ccc(F)cc2)N1 (stereo not drawn); 2.6

query: Record request: inhibition in vivo at 10 mg/kg value, item CC1=C(C(=O)Nc2ccc([N+](=O)[O-])cc2)C(c2cccc([N+](=O)[O-])c2)N=C(SCc2cccc(Cl)c2)N1 (stereo not drawn)
result: 2.6

query: Please do the same for COc1ccc(C2N=C(SCc3cccc(Cl)c3)NC(C)=C2C(=O)Nc2ccc(F)cc2)cc1OC (stereo not drawn) as well.
result: 2.1

----------
- Tested on: Rattus norvegicus
- TEST NAME: Antihypertensive activity against DOCA-salt induced hypertension in albino rat assessed as reduction in systolic blood pressure at 10 mg/kg, po after 15 mins by tail-cuff method
- Format: functional
- MEASUREMENT CONTEXT: Artery, 0.25 h
OBSERVABLE: inhibition in vivo at 10 mg/kg (%)
Give the quantity in %, number only.

Previously resolved entries follow.
CC1=C(C(=O)Nc2ccc([N+](=O)[O-])cc2)C(c2cccc([N+](=O)[O-])c2)N=C(SCc2ccc(F)cc2)N1 (stereo unspecified); 2.6
COc1ccc(C2N=C(SCc3ccc(Cl)cc3)NC(C)=C2C(=O)Nc2ccc(F)cc2)cc1OC (stereo unspecified); 3.1
COc1ccc(C2N=C(SCc3cccc(Cl)c3)NC(C)=C2C(=O)Nc2ccc(Br)cc2)cc1 (stereo unspecified); 3.1
COc1ccc(C2N=C(SCc3ccc(Cl)cc3)NC(C)=C2C(=O)Nc2ccc(Br)cc2)cc1 (stereo unspecified); 3.1
CC1=C(C(=O)Nc2ccc(F)cc2)C(c2ccc([N+](=O)[O-])cc2)N=C(SCc2ccccc2)N1 (stereo unspecified); 3.1

Consider now this further compound.
query: // map CC1=C(C(=O)Nc2ccc(Br)cc2)C(c2ccc(Cl)cc2Cl)N=C(SCc2ccccc2Cl)N1 (stereo unspecified) to recorded inhibition in vivo at 10 mg/kg (system: Rattus norvegicus)
result: 3.1

----------
- Tested on: Rattus norvegicus
- TEST NAME: Antihypertensive activity against DOCA-salt induced hypertension in albino rat assessed as reduction in systolic blood pressure at 10 mg/kg, po after 900 mins by tail-cuff method
- Format: functional
- MEASUREMENT CONTEXT: Artery, 15 h
This listing pairs molecules with measured inhibition in vivo at 10 mg/kg.
Give the quantity in %, number only.

Previously resolved entries follow.
COc1ccc(C2N=C(SCc3ccc(F)cc3)NC(C)=C2C(=O)Nc2ccc(F)cc2)cc1OC (configuration not stated); 15.4
CC1=C(C(=O)Nc2ccc(Br)cc2)C(c2ccc(Cl)cc2Cl)N=C(SCc2ccc(Cl)cc2)N1 (configuration not stated); 22.1
CC1=C(C(=O)Nc2ccc([N+](=O)[O-])cc2)C(c2ccc(Br)cc2)N=C(SCc2ccccc2)N1 (configuration not stated); 19.5
COc1ccc(C2N=C(SCc3ccc(Cl)cc3)NC(C)=C2C(=O)Nc2ccc(Br)cc2)cc1 (configuration not stated); 20
CC1=C(C(=O)Nc2ccc([N+](=O)[O-])cc2)C(c2cccc([N+](=O)[O-])c2)N=C(SCc2cccc(Cl)c2)N1 (configuration not stated); 10.8

query: Record request: inhibition in vivo at 10 mg/kg value, item CC1=C(C(=O)Nc2ccc([N+](=O)[O-])cc2)C(c2cccc([N+](=O)[O-])c2)N=C(SCc2ccc(Cl)cc2)N1 (configuration not stated)
result: 12.3

query: Please do the same for COc1ccc(C2N=C(SCc3ccccc3Cl)NC(C)=C2C(=O)Nc2ccc(F)cc2)cc1OC (configuration not stated) as well.
result: 21

query: Please do the same for CC1=C(C(=O)Nc2ccc(Br)cc2)C(c2ccc(Cl)cc2Cl)N=C(SCc2ccc(F)cc2)N1 (configuration not stated) as well.
result: 23.1

query: Please do the same for COc1ccc(C2N=C(SCc3ccccc3)NC(C)=C2C(=O)Nc2ccc(Br)cc2)cc1 (configuration not stated) as well.
result: 5.6

query: Please do the same for CC1=C(C(=O)Nc2ccc([N+](=O)[O-])cc2)C(c2ccc(Br)cc2)N=C(SCc2ccc(Cl)cc2)N1 (configuration not stated) as well.
result: 19

query: Please do the same for CC1=C(C(=O)Nc2ccc([N+](=O)[O-])cc2)C(c2ccc(Br)cc2)N=C(SCc2cccc(Cl)c2)N1 (configuration not stated) as well.
result: 2.6

query: Please do the same for COC(=O)C1=C(C)NC(C)=C(C(=O)OC)C1c1ccccc1[N+](=O)[O-] as well.
result: 16.9
